Tested on: COLO 205
test.summary: NCI tumour cell line growth inhibition, 48 h
The source made the active and inactive calls. Cut-off read from the data, not from the text of the source: active = GI50 up to about 1.1 µM and inactive = higher.
readout.kind: GI50

>>> endpoint_result("Oc1ccnc(SCc2ccc(Cl)cc2)n1")
"> 100 µM (inactive)"
>>> endpoint_result("Cn1c(=O)c(Cl)c(N=[N+]=[N-])c2ccccc21")
"> 100 µM (inactive)"
>>> endpoint_result("c1cc2cc(c1)CN1CCNCCN(CCNCC1)Cc1cccc(c1)CN1CCNCCN(CCNCC1)C2")
"> 100 µM (inactive)"
>>> endpoint_result("CCOP(=O)(OCC)[C@H](O)c1ccsc1")
"> 100 µM (inactive)"
>>> endpoint_result("CCC(C#N)NCc1ccc(CNC(C#N)CC)cc1 (configuration not stated)")
"> 100 µM (inactive)"
>>> endpoint_result("Cc1c(OC(C)C(=O)O)ccc2c(-c3ccccc3)cc(=O)oc12 (configuration not stated)")
"> 100 µM (inactive)"

For each of the items listed, what is its GI50?
1. CC(O)(P(=O)(O)O)P(=O)(O)OCC(O)CN1CCOCC1 (configuration not stated)
2. O=c1cccc(Cl)[nH]1

1: > 100 µM (inactive); 2: > 100 µM (inactive)

For each of the items listed, what is its GI50?
1. Nc1nc2c(ncn2CC(CO)CC(c2ccccc2)P(=O)(O)O)c(=O)[nH]1 (configuration not stated)
2. C(=N\c1nc2cc3sc(/N=C/c4cccs4)nc3cc2s1)/c1cccs1
3. COc1cccc(/C(CC(O)(C(F)(F)F)C(F)(F)F)=N\N(C)C)c1
4. COc1cc(Nc2nc3ccccc3nc2C(=O)O)cc(OC)c1OC

["> 100 µM (inactive)", "3.4 µM (inactive)", "> 100 µM (inactive)", "> 100 µM (inactive)"]
